Target: LXRβ full length (FL) (Homo sapiens, UniProt P55055, INS174Q)
Construct: the full length (FL) proteins of LXRα (amino acids 1-447); NP005684; NP009052
Sequence (P55055 with tags, fused parts or gaps INS174Q): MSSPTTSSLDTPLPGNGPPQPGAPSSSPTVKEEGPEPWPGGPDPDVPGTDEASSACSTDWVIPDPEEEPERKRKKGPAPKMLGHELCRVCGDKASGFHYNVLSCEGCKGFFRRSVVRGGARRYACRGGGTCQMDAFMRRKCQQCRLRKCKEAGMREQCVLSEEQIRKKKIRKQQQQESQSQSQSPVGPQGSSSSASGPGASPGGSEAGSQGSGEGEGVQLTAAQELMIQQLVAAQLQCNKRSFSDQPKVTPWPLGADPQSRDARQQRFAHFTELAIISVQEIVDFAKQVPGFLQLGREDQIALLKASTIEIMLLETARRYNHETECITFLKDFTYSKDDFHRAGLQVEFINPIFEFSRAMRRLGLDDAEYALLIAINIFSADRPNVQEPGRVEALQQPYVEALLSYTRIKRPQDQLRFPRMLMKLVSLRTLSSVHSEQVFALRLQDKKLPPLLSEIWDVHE
Test: LXR Gal4 reporter transient transfection assay, mammalian two-hybrid, FL-M2H Gal4β
Conditions: HEK293 cells; inverse agonist unless *
This listing pairs molecules with measured EC50.

Some solved entries appear below for comparison.
Cc1cc(C)c(C(=O)N(Cc2ccc(-c3cccc(C(C)(C)C(=O)O)c3)cc2)Cc2ccc(C(F)(F)F)o2)c(C)c1 [10/1]: < 100 nM
Cc1ccc2ccccc2c1CN(Cc1ccc(-c2cncc(S(=O)(=O)CC(=O)O)c2)cc1)Cc1ccc(C(F)(F)F)o1 [26/7]: 100 to 1000 nM
Cc1ccc2ccccc2c1C(=O)N(Cc1ccc(-c2cccc([C@H](C)C(=O)O)c2)cc1)Cc1cccc(C(F)(F)F)c1 [27/83]: < 100 nM

Next molecule, please.
Kindly indicate its recorded EC50. Item: Cc1ccc2ccc(C(N)=O)cc2c1CN(Cc1ccc(-c2cccc(C(C)(C)C(=O)O)c2)cc1)Cc1ccc(C(F)(F)F)o1 [27/25]
< 100 nM
